Assay: AUC in mouse at 10 mg/kg, po
Type: ADME, organism-based
Design: dose 10 mg/kg, route oral
Settings: plasma

{"columns": ["CHEM SMILES", "AUC [ng·h/mL]"],
 "data": [
  ["COC(=O)Nc1nc2cc(Oc3ccc(NC(=O)Nc4cc(C(F)(F)F)ccc4Cl)cc3)ccc2[nH]1", 2540]
]}

----------
Measured pIC50 by item
Molecular target: Angiopoietin-1 receptor (Homo sapiens, UniProt Q02763)
Sequence (Q02763 whole entry): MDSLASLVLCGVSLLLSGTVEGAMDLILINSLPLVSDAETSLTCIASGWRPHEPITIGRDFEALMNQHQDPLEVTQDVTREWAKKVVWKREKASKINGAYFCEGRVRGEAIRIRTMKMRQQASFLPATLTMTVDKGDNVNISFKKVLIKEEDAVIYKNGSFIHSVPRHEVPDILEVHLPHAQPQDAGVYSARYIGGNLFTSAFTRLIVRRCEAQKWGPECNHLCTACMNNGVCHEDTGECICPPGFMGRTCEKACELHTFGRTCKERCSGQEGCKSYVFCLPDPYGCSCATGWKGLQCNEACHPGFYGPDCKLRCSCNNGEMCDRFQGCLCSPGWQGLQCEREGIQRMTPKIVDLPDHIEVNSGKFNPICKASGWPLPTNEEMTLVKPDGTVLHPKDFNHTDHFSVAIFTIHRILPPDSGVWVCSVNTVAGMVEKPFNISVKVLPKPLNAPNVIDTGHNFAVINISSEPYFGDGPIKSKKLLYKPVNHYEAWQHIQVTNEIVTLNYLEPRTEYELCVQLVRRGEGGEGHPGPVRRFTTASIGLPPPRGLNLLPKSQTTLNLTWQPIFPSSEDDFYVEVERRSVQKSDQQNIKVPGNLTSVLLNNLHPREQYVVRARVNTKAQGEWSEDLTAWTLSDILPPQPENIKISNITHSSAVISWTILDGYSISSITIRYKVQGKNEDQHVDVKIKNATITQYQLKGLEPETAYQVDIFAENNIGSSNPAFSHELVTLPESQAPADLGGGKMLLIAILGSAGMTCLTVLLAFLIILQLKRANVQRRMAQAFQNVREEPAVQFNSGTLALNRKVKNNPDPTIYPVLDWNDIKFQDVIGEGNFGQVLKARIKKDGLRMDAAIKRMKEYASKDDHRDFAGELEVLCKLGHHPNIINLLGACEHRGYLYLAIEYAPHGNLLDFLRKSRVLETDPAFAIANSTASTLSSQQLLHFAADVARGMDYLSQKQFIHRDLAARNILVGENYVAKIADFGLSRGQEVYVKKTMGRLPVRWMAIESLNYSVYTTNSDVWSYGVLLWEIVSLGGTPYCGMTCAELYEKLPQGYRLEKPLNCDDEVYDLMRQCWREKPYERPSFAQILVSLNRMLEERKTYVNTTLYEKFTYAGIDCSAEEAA
Experiment: Inhibition of GST-tagged human recombinant TIE2 expressed in baculovirus
pIC50: −log10 of the molar value.

{"columns": ["CHEM SMILES", "pIC50"],
 "data": [
  ["COC(=O)Nc1nc2cc(Oc3ccc(NC(=O)Nc4cccc(Br)c4)cc3)ccc2[nH]1", 7.89],
  ["O=C(Nc1ccc(Oc2ccc3[nH]c(NC(=O)c4ccccc4)nc3c2)cc1)Nc1cc(C(F)(F)F)ccc1F", 7.89],
  ["COC(=O)Nc1cn2cc(Oc3ccc(NC(=O)Nc4cc(C(F)(F)F)ccc4F)cc3)ccc2n1", 8.47],
  ["COC(=O)Nc1nc2cc(Oc3ccc(NC(=O)Nc4cc(C(F)(F)F)ccc4F)cc3)ccc2n1C", 5.25],
  ["CC(=O)Nc1nc2ccc(Oc3ccc(NC(=O)Nc4cc(C(F)(F)F)ccc4F)nc3)cc2[nH]1", 8.54],
  ["COC(=O)Nc1nc2ccc(Oc3ccc(NC(=O)Nc4cccc(C(F)(F)F)c4)cc3)cc2[nH]1", 8.28],
  ["O=C(Nc1ccc(Oc2ccc3nc(NC(=O)c4cccnc4)[nH]c3c2)cc1)Nc1cc(C(F)(F)F)ccc1F", 7.80],
  ["COC(=O)Nc1nc2ccc(Oc3ccc(NC(=S)Nc4cccc(C(F)(F)F)c4)cc3)cc2[nH]1", 5.49]
]}
